- SYSTEM UNDER TEST: Synaptic vesicular amine transporter (Rattus norvegicus, UniProt Q01827)
- Sequence (Q01827 whole entry): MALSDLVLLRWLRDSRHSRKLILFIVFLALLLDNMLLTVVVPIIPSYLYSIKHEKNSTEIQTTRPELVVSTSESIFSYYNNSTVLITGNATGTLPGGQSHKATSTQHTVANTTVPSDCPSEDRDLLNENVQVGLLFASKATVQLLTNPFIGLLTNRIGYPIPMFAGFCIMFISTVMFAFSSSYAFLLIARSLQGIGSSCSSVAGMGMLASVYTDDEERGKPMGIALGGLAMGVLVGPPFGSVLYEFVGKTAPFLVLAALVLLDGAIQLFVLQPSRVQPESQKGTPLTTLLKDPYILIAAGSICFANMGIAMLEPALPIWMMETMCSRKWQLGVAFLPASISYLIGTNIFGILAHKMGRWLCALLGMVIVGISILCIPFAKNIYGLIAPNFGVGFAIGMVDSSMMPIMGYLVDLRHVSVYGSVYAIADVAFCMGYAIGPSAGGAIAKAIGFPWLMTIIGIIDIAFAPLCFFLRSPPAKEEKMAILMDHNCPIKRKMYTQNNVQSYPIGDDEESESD
- EXPERIMENT: Inhibition of [3H]dopamine uptake at VMAT2 in rat brain synaptic vesicle by liquid scintillation spectroscopy
- Assay type: tissue-based
pKi: −log10 of the molar value.
Decide using pKi: a value greater than or equal to 7 is Yes, a smaller one is No.

Examples with answers:
• c1ccc(CC[C@H]2CC[C@H](CCc3ccccc3)N2)cc1 = Yes
• c1ccc(CC[C@H]2CCC[C@@H](CCc3ccccc3)N2)cc1 = Yes
• CN1[C@@H](Cc2ccccc2)CC[C@H]1Cc1ccccc1 = Yes

Query string: Has CN1[C@@H](CCc2ccccc2)CC[C@@H]1CCc1ccccc1 a recorded pKi greater than or equal to 7?
Result string: No

Query string: Could you please find out whether OC[C@H](c1ccccc1)N1[C@H](CCc2ccccc2)CC[C@H]1CCc1ccccc1 has pKi that meets 7 or exceeds it?
Result string: No
